Test Target: human flavin-containing monooxygenase 3 (hFMO3), N61S variant (Homo sapiens, UniProt P31513, N61S)
Sequence (P31513 2-532 N61S): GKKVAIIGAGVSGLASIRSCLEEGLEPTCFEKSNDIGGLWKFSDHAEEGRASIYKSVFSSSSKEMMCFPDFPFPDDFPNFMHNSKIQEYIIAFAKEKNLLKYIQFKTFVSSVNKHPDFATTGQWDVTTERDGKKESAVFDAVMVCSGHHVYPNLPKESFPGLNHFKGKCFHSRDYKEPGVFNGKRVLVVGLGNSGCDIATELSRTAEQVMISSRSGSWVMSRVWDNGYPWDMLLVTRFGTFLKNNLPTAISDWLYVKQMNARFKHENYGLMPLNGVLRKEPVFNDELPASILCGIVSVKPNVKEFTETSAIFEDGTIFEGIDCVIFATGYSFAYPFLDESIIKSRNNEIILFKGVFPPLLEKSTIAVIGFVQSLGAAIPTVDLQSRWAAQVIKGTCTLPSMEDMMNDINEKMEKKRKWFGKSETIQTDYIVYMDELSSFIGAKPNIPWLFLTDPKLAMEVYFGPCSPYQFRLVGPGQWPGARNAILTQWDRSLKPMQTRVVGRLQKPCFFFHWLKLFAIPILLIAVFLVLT
Method Summary: stopped-flow anaerobic FAD reduction at […] nm, Kd from kobs vs [NADPH]
Condition Description: read-out: Reduction / K d,NADPH /
Parameter: Kd
Report the figure along with its unit, number first.

Ask: Consider the molecule "NC(=O)C1=CN([C@@H]2O[C@H](COP(=O)(O)OP(=O)(O)OC[C@H]3O[C@@H](n4cnc5c(N)ncnc54)[C@H](OP(=O)(O)O)[C@@H]3O)[C@@H](O)[C@H]2O)C=CC1" and give its recorded Kd.
Reply: 51.8 µM

====

Test Target: human flavin-containing monooxygenase 3 (hFMO3), wild type (Homo sapiens)
Construct: gene FMO3
Method Summary: ITC (supported by CD and DSC thermal shifts and trypsin protection)
Type: binding
Parameter: pKd
One number for each entry, as −log10 of the molar value.

Ask: Consider the compound "NC(=O)c1ccc[n+]([C@@H]2O[C@H](COP(=O)(O)OP(=O)(O)OC[C@H]3O[C@@H](n4cnc5c(N)ncnc54)[C@H](OP(=O)(O)O)[C@@H]3O)[C@@H](O)[C@H]2O)c1" and give its recorded pKd.
Reply: 5.43

====

Test Target: human flavin-containing monooxygenase 3 (hFMO3), wild type (Homo sapiens, UniProt P31513)
Construct: gene FMO3
Sequence (P31513 2-532): as the sequence (P31513 2-532 N61S) above, with S60N counted along it
Method Summary: stopped-flow anaerobic FAD reduction at […] nm, Kd from kobs vs [NADPH]
Assay type: biochemical
Condition Description: read-out: Reduction / K d,NADPH /
Parameter: pKd
One number for each entry, as −log10 of the molar value.

Ask: Consider the compound "NC(=O)C1=CN([C@@H]2O[C@H](COP(=O)(O)OP(=O)(O)OC[C@H]3O[C@@H](n4cnc5c(N)ncnc54)[C@H](OP(=O)(O)O)[C@@H]3O)[C@@H](O)[C@H]2O)C=CC1" and give its recorded pKd.
Reply: 6.52
